# assay_remarks: logP determination by HPLC on a reversed-phase column (EEC Directive 79/831 Annex V.A8)
# Assay type: physicochemical
# condition_context: reversed-phase C18 HPLC column; HPLC, reversed-phase C 18, 43° C., acidic range pH 2.3, 0.1% aqueous phosphoric acid/acetonitrile; read-out: logP (pH2)
property_measured: chromatographic logP

Recorded results for 2 compounds are shown here.
1. CC(C)(C)c1nnn(-c2ccc(N)cc2)n1    2.27
2. CC(C)(C)c1nc(-c2ccc(N)cc2)no1    2.31

Would you kindly look at the next entry?
Write down chromatographic logP measured for item `CC(C)(C)n1nnc(-c2ccc(N)cc2)n1`
1.69

----------
# assay_remarks: logP determination by HPLC on a reversed-phase column (EEC Directive 79/831 Annex V.A8)
# Assay type: physicochemical
# condition_context: reversed-phase C18 HPLC column; HPLC, reversed-phase C 18, 43° C., acidic range pH 2.3, 0.1% aqueous phosphoric acid/acetonitrile; read-out: logP (pH2)
# Procedure: The logP values given in the Preparation Examples and the tables above are determined in accordance with EEC Directive 79/831 Annex V.A8 by HPLC (High Performance Liquid Chromatography) on a reversed-phase column (C 18). Temperature: 43° C. The determination is carried out in the acidic range at pH 2.3 using the mobile phases 0.1% aqueous phosphoric acid and acetonitrile; linear gradient from 10% acetonitrile to 90% acetonitrile. […]
property_measured: chromatographic logP
Give bare numbers.

1. N#Cc1cnn(C2CNN=C2c2ccc(Cl)cc2)c1 (centres unmarked)    2.11
2. CC(C)(C)c1nnn(-c2ccc(NC(=O)N3CC(n4cc(C#N)cn4)C(c4ccc(Cl)cc4)=N3)cc2)n1 (centres unmarked) [Compound 5]    4.27
3. CC(C)(C)n1nnc(-c2ccc(NC(=O)N3CC(n4cc(C#N)cn4)C(c4ccc(Cl)cc4)=N3)cc2)n1 (centres unmarked) [Compound 4]    3.91
4. CC(C)(C)c1noc(-c2ccc(N)cc2)n1    2.54

Would you kindly look at the next entry?
Write down chromatographic logP measured for item N#Cc1cnn(C2CN(C(=O)Nc3ccc(-c4ccccc4)cc3)N=C2c2ccc(Cl)cc2)c1 (centres unmarked) [Compound 1]
4.11

----------
# assay_remarks: logP determination by HPLC on a reversed-phase column (EEC Directive 79/831 Annex V.A8)
# Type: physicochemical
# condition_context: HPLC, reversed-phase C 18, 43° C., acidic range pH 2.3, 0.1% aqueous phosphoric acid/acetonitrile; read-out: logP (pH2)
# Protocol: The logP values given in the Preparation Examples and the tables above are determined in accordance with EEC Directive 79/831 Annex V.A8 by HPLC (High Performance Liquid Chromatography) on a reversed-phase column (C 18). Temperature: 43° C. The determination is carried out in the acidic range at pH 2.3 using the mobile phases 0.1% aqueous phosphoric acid and acetonitrile; linear gradient from 10% acetonitrile to 90% acetonitrile. […]
property_measured: chromatographic logP
One number for each entry.

Write down chromatographic logP measured for item `N#Cc1cnn(CC(=O)c2ccc(Cl)cc2)c1`
2.2

Taken from patent US20050107456A1.
